- experiment_description: Approximate measured solubility in solvents at 25° C.
- Assay type: physicochemical
- measurement_parameters: methyl t-butyl ether, 25 °C, organic solvent or mixture, thermodynamic from solid, at least 24 hours
measured_property: solubility (µg/mL)
Enter your answer as a number in µg/mL; do not include the unit.

### Prompt If you can, please state the reported solubility value of Cc1cccc2nc(C)n(C3CCC(=O)NC3=O)c(=O)c12 (single isomer, unassigned) [Form A] .
### Response 420

----------
- experiment_description: Approximate measured solubility in solvents at 25° C.
- Type: physicochemical
- measurement_parameters: tetrahydrofuran, 25 °C, organic solvent or mixture, thermodynamic from solid, at least 24 hours
measured_property: solubility (µg/mL)
Enter your answer as a number in µg/mL; do not include the unit.

### Prompt If you can, please state the reported solubility value of Cc1cccc2nc(C)n(C3CCC(=O)NC3=O)c(=O)c12 (single isomer, unassigned) [Form A] .
### Response 4570
